In this section we review reported pKd values for a set of binders.
- System Under Test: T1, NEQ395 DNA primase (monomeric PriS-PriL) (Nanoarchaeum equitans, UniProt Q74N22 1-393)
- T1 sequence: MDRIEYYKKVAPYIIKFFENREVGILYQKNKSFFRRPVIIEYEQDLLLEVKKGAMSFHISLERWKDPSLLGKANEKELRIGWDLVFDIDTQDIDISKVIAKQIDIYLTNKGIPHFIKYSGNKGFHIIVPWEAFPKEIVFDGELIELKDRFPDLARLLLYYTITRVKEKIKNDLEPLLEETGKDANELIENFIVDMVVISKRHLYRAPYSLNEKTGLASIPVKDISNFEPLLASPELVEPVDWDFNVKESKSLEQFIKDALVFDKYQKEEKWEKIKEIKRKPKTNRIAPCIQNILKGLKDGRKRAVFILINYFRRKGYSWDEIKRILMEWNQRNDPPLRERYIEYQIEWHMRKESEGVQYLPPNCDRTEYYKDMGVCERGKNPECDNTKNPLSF
- Procedure Details: fluorescence anisotropy
pKd: −log10 of the molar value.
Reported Metric: pKd

>>> meas_value("CTGTGCTCA (ssDNA) [t9-ATA (lacks ATA)]")
5.54
>>> meas_value("CTATACTCA (ssDNA) [t9]")
5.97

Cited source for all entries: paper PMC10250227
